Entries and their IC50
Biological target: A. fumigatus SglA (Aspergillus fumigatus)
Test: Ergosterol 3β-D-glucoside (ErgGlc) hydrolysis by SglA, ergosterol quantified by HPLC
Type: biochemical
Details: ErgGlc as the substrate; read-out: IC50
Write the value in µM as a bare number.

- smilesInput: "CCc1[nH]c2ccc(CNc3cc(C)nc(NC)n3)cc2c1C"
  resultNumber: 9
- smilesInput: "Cc1[nH]c2ccc(CNc3cc(N4CCOCC4)ncn3)cc2c1C"
  resultNumber: 15

Let us examine a further case.
So what's the measured IC50 for this one? `Cc1[nH]c2ccc(CNc3cc(NCCO)ncn3)cc2c1C` 15

====

Target: A. fumigatus SglA (Aspergillus fumigatus, UniProt Q4WXA7)
Sequence (Q4WXA7 entry or part of it): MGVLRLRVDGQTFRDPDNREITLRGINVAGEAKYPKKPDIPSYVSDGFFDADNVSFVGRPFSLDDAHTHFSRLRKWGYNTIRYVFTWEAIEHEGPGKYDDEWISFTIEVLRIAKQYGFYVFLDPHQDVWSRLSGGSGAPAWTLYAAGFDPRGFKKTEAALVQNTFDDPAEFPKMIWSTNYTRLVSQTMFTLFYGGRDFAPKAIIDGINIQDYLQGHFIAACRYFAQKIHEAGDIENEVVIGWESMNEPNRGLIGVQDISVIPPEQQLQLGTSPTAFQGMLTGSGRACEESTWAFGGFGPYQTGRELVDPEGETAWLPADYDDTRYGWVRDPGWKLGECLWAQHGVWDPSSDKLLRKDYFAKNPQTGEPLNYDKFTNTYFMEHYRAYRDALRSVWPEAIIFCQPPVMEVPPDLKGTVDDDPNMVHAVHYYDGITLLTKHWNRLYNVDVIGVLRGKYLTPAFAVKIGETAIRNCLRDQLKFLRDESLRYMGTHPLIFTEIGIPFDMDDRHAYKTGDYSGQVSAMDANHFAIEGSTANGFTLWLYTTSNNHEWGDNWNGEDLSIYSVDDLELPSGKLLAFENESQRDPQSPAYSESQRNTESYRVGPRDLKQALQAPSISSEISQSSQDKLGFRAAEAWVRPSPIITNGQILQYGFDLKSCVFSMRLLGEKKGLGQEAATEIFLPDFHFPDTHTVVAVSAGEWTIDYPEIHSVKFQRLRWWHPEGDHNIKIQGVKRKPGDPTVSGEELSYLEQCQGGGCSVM
Experiment: Ergosterol 3β-D-glucoside (ErgGlc) hydrolysis by SglA, ergosterol quantified by HPLC
Format: biochemical
Details: ErgGlc as the substrate; read-out: IC50
pIC50: −log10 of the molar value.
// pIC50 lookup, one value per entry

- smilesInput: "Cc1cc(CNc2cc(N)ncn2)c2[nH]c(C)c(C)c2c1"
  assayedTarget: "A. fumigatus SglA (Aspergillus fumigatus, UniProt Q4WXA7)"
  pIC50: "< 4.00"
- smilesInput: "Cc1cc(CNc2ccnc(N)n2)c2[nH]c(C)c(C)c2c1"
  assayedTarget: "A. fumigatus SglA (Aspergillus fumigatus, UniProt Q4WXA7)"
  pIC50: "< 4.00"

Now for a further molecule.
GET /values?readout=pIC50&item= `CCc1[nH]c2ccc(CNc3ccnc(N)n3)cc2c1C` < 4.00
